- MEASURED_ON: human BACE1 (Homo sapiens, UniProt P56817)
- Sequence (P56817 46-501): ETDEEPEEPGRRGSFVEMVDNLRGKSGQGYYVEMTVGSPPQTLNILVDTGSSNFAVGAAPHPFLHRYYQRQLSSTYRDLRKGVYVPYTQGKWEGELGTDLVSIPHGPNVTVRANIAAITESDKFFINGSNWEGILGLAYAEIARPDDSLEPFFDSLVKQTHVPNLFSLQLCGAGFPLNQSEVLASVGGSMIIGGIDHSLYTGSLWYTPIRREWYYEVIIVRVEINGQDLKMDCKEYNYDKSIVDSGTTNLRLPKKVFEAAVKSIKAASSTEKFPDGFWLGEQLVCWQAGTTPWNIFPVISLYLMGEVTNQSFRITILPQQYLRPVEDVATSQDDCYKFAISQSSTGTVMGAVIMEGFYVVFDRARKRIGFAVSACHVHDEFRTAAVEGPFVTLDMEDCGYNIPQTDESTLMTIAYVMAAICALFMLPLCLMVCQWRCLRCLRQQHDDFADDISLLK
Would you kindly list pIC50 for each of these compounds?
Formally, pIC50 is defined as -log10 of the concentration c, with c in mol/L.

Q: Could you tell me which pIC50 is on file for Cc1c(OCc2ccccc2)cccc1N1CCN(CCCNc2c3c(nc4ccccc24)CCCC3)CC1 [Compound 27] ?
A: 5.24

Q: Try this compound next: O=S(=O)(c1ccccc1)n1ccc2c(N3CCN(CCCCCCCNc4c5c(nc6ccccc46)CCCC5)CC3)cccc21 [Compound 4]
A: 5.88

Q: What do we get for Cc1c(OCc2ccccc2)cccc1N1CCN(CCCCCCCNc2c3c(nc4ccccc24)CCCC3)CC1 [Compound 29] ?
A: 5.39

Q: Another compound to check: O=S(=O)(c1ccccc1)n1ccc2c(N3CCN(CCCCCNCc4ccccc4)CC3)cccc21 [Compound 9]
A: 4.63

Q: Please answer likewise for c1ccc(CNCCCCN2CCN(c3cccc4c3ccn4Cc3ccccc3)CC2)cc1 [Compound 21]
A: 4.66

Q: Can you handle c1ccc(CNCCCCCCCN2CCN(c3cccc4c3ccn4Cc3ccccc3)CC2)cc1 [Compound 24] next?
A: 4.66

----------
Give In cellulo Aβ42 inhibition % for every item shown.
- MEASURED_ON: Aβ42 (Homo sapiens, UniProt P05067)
- Construct: expressed in transfected cells; host or cells: E. coli BL21 (DE3) with pET28a-Aβ42, IPTG-induced
- Sequence (P05067 672-713): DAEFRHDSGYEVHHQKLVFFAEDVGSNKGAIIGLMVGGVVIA
- PROCEDURE_TEXT: In cellulo Aβ42 aggregation inhibition, Thioflavin S fluorescence in E. coli overexpressing Aβ42
- Type: cell-based, Escherichia coli
- EXPERIMENTAL_CONTEXT: at 10 µM; mean of three experiments ± SEM
- From the text: We screened multifunctional ligands from our in-house library for their anti-aggregating activity against Aβ and tau in the whole bacterial cells using the Thioflavin S (ThS) fluorescence assay. Bacterial cells overexpressing different proteins provide simple models that can be easily employed to monitor the mechanisms of protein aggregation related to a variety of conformational diseases[36]^,[37]. […]
# unit: % | format: bare number

Q: Entry under review: `Cc1c(OCc2ccccc2)cccc1N1CCN(CCCNCc2ccccc2)CC1` . Reported In cellulo Aβ42 inhibition %?
A: 24.4

Q: What do we get for `O=S(=O)(c1ccccc1)n1ccc2c(N3CCN(CCCNCc4ccccc4)CC3)cccc21` ?
A: 48.3

Q: Same lookup for `Cc1c(OCc2ccccc2)cccc1N1CCN(CCCCCCCCNc2c3c(nc4ccccc24)CCCC3)CC1` , please.
A: 66.7

----------
- MEASURED_ON: Aβ42 (Homo sapiens)
- Construct: expressed in transfected cells; host or cells: E. coli BL21 (DE3) with pET28a-Aβ42, IPTG-induced
- PROCEDURE_TEXT: In cellulo Aβ42 aggregation inhibition, Thioflavin S fluorescence in E. coli overexpressing Aβ42
- Format: cell-based, Escherichia coli
- EXPERIMENTAL_CONTEXT: at 10 µM; mean of three experiments ± SEM
The threshold is inclusive: In cellulo Aβ42 inhibition % of exactly 50% counts as Fulfilled; values below receive Not fulfilled.

Q: Quick check, In cellulo Aβ42 inhibition % >= 50%? O=S(=O)(c1ccccc1)n1ccc2c(N3CCN(CCCCCCCCNc4c5c(nc6ccccc46)CCCC5)CC3)cccc21 [Compound 5]
A: Fulfilled

Q: And then Cc1c(OCc2ccccc2)cccc1N1CCN(CCCCCCCNc2c3c(nc4ccccc24)CCCC3)CC1 [Compound 29] , what is it?
A: Fulfilled

Q: And c1ccc(Cn2ccc3c(N4CCN(CCCCCCNc5c6c(nc7ccccc57)CCCC6)CC4)cccc32)cc1 [Compound 20] ?
A: Fulfilled

Q: Let us now turn to O=S(=O)(c1ccccc1)n1ccc2c(N3CCN(CCCCNCc4ccccc4)CC3)cccc21 [Compound 8]
A: Fulfilled

Q: Input O=S(=O)(c1ccccc1)n1ccc2c(N3CCN(CCCCCCCNc4c5c(nc6ccccc46)CCCC5)CC3)cccc21 [Compound 4]
A: Fulfilled

Q: Note, next up: c1ccc(CNCCCCCCCN2CCN(c3cccc4c3ccn4Cc3ccccc3)CC2)cc1 [Compound 24]
A: Not fulfilled

Q: How about Cc1c(OCc2ccccc2)cccc1N1CCN(CCCCCNCc2ccccc2)CC1 [Compound 33] ?
A: Not fulfilled

Q: Follow-up item: O=S(=O)(c1ccccc1)n1ccc2c(N3CCN(CCNCc4ccccc4)CC3)cccc21 [Compound 6]
A: Fulfilled

Q: Record: c1ccc(CNCCCCCCN2CCN(c3cccc4c3ccn4Cc3ccccc3)CC2)cc1 [Compound 23]
A: Not fulfilled

Q: Can you handle Cc1c(OCc2ccccc2)cccc1N1CCN(CCCCCCNc2c3c(nc4ccccc24)CCCC3)CC1 [Compound 28] next?
A: Fulfilled

Q: Likewise for Cc1c(OCc2ccccc2)cccc1N1CCN(CCCCNCc2ccccc2)CC1 [Compound 32] ?
A: Not fulfilled

Q: Item: O=S(=O)(c1ccccc1)n1ccc2c(N3CCN(CCNc4c5c(nc6ccccc46)CCCC5)CC3)cccc21 [Compound 1]
A: Not fulfilled

Q: Then this compound: O=S(=O)(c1ccccc1)n1ccc2c(N3CCN(CCCCCNCc4ccccc4)CC3)cccc21 [Compound 9]
A: Not fulfilled

Q: What about Cc1c(OCc2ccccc2)cccc1N1CCN(CCCNc2c3c(nc4ccccc24)CCCC3)CC1 [Compound 27] ?
A: Fulfilled

Q: Now try c1ccc(CNCCCCCN2CCN(c3cccc4c3ccn4Cc3ccccc3)CC2)cc1 [Compound 22] .
A: Not fulfilled

Q: Now give it for c1ccc(CNCCCCN2CCN(c3cccc4c3ccn4Cc3ccccc3)CC2)cc1 [Compound 21] too.
A: Not fulfilled

----------
# pIC50 measurements, system: UniProt P56817
Please express pIC50 as -log10 of the molar concentration.

Q: Write down the reported pIC50 of `c1ccc(Cn2ccc3c(N4CCN(CCCNc5c6c(nc7ccccc57)CCCC6)CC4)cccc32)cc1` , test system: UniProt P56817.
A: 5.34

Q: What do you get for `O=S(=O)(c1ccccc1)n1ccc2c(N3CCN(CCCCCNc4c5c(nc6ccccc46)CCCC5)CC3)cccc21` ?
A: 5.09

Q: Next molecule: `O=S(=O)(c1ccccc1)n1ccc2c(N3CCN(CCCCNCc4ccccc4)CC3)cccc21`
A: 4.71

Q: Here is the next molecule: `O=S(=O)(c1ccccc1)n1ccc2c(N3CCN(CCNc4c5c(nc6ccccc46)CCCC5)CC3)cccc21`
A: 5.80

Q: Moving on to `O=S(=O)(c1ccccc1)n1ccc2c(N3CCN(CCCCCCCCNc4c5c(nc6ccccc46)CCCC5)CC3)cccc21`
A: 5.64

Q: Try this molecule too: `c1ccc(CNCCCCCCN2CCN(c3cccc4c3ccn4Cc3ccccc3)CC2)cc1`
A: 4.51

Q: Do the same for `c1ccc(Cn2ccc3c(N4CCN(CCCCCNc5c6c(nc7ccccc57)CCCC6)CC4)cccc32)cc1` please
A: 5.14

Q: // same read-out, input: `O=S(=O)(c1ccccc1)n1ccc2c(N3CCN(CCCNCc4ccccc4)CC3)cccc21`
A: 5.24

----------
- MEASURED_ON: tau (Homo sapiens)
- Construct: expressed in transfected cells; host or cells: E. coli BL21 (DE3) with pTARA (T7 RNA polymerase under pBAD) and pRKT42
- Sequence (P10636 other isoform, or with tags, fused parts or gaps): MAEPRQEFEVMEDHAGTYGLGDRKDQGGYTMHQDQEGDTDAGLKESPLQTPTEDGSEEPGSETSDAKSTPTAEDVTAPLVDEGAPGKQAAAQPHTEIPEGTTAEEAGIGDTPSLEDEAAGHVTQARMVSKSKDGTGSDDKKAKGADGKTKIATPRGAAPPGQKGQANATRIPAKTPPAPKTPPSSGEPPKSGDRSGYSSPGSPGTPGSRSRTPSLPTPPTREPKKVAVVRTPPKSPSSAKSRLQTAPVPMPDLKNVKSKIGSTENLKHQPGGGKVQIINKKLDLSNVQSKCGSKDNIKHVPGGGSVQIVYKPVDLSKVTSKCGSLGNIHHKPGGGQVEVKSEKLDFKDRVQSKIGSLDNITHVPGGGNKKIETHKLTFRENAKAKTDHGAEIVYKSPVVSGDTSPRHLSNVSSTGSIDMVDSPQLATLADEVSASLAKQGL
- PROCEDURE_TEXT: In cellulo tau aggregation inhibition, Thioflavin S fluorescence in E. coli overexpressing tau
- Type: cell-based, Escherichia coli
- EXPERIMENTAL_CONTEXT: at 10 µM; mean of three experiments ± SEM
Would you mind labelling by In cellulo tau inhibition %? At or over 50% is met, under is not met.

Q: Quick check, In cellulo tau inhibition % >= 50%? `c1ccc(CNCCCCN2CCN(c3cccc4c3ccn4Cc3ccccc3)CC2)cc1`
A: not met

Q: Now consider `Cc1c(OCc2ccccc2)cccc1N1CCN(CCCNc2c3c(nc4ccccc24)CCCC3)CC1` and answer again.
A: met

Q: How about `c1ccc(CNCCCCCCN2CCN(c3cccc4c3ccn4Cc3ccccc3)CC2)cc1` ?
A: not met

Q: Would you mind doing `O=S(=O)(c1ccccc1)n1ccc2c(N3CCN(CCCCCCCCNc4c5c(nc6ccccc46)CCCC5)CC3)cccc21` as well?
A: met

Q: // repeat for `Cc1c(OCc2ccccc2)cccc1N1CCN(CCCCCCNc2c3c(nc4ccccc24)CCCC3)CC1` and report
A: met

Q: Check `O=S(=O)(c1ccccc1)n1ccc2c(N3CCN(CCCCCNCc4ccccc4)CC3)cccc21` too.
A: not met

Q: Now give it for `O=S(=O)(c1ccccc1)n1ccc2c(N3CCN(CCNc4c5c(nc6ccccc46)CCCC5)CC3)cccc21` too.
A: met

Q: Subsequent entry: `O=S(=O)(c1ccccc1)n1ccc2c(N3CCN(CCCCCCCNc4c5c(nc6ccccc46)CCCC5)CC3)cccc21`
A: not met

----------
- MEASURED_ON: tau (Homo sapiens)
- Construct: expressed in transfected cells; host or cells: E. coli BL21 (DE3) with pTARA (T7 RNA polymerase under pBAD) and pRKT42
- PROCEDURE_TEXT: In cellulo tau aggregation inhibition, Thioflavin S fluorescence in E. coli overexpressing tau
- Type: cell-based, Escherichia coli
- EXPERIMENTAL_CONTEXT: at 10 µM; mean of three experiments ± SEM
Hi there, I'd appreciate the recorded In cellulo tau inhibition % for every entry that follows.
Write the answer as a number in %, unit excluded.

Q: Given Cc1c(OCc2ccccc2)cccc1N1CCN(CCCNCc2ccccc2)CC1 [Compound 31] , state its recorded In cellulo tau inhibition %.
A: 39.5

Q: Same again, this time with Cc1c(OCc2ccccc2)cccc1N1CCN(CCCCCNCc2ccccc2)CC1 [Compound 33]
A: 55.8

Q: Moving on to the next compound: O=S(=O)(c1ccccc1)n1ccc2c(N3CCN(CCCNCc4ccccc4)CC3)cccc21 [Compound 7]
A: 39.7
